This listing pairs compounds with measured MIC.
Test system: Candida krusei CBS 573
testConditions: CBS 573, 48 h
Peptide text beside a SMILES is read from it.
# output: bare number, implied unit µg/mL

- compound: "NCCCC[C@H](NC(=O)[C@H](CCCCN)NC(=O)[C@H](Cc1c[nH]cn1)NC(=O)[C@H](CCCCN)NC(=O)[C@H](CS)NC(=O)[C@H](CC(N)=O)NC(=O)[C@@H](N)CC(N)=O)C(=O)NCC(=O)N[C@@H](CO)C(=O)NCC(=O)N[C@@H](CS)C(=O)O [Fr-4] (H-NNCKHKKGSGC-OH; N-terminus and C-terminus assumed)"
  numericResult: 50

Tell me MIC reported for NCCCC[C@H](NC(=O)CNC(=O)[C@H](CCCCN)NC(=O)[C@H](CC(N)=O)NC(=O)[C@H](CS)NC(=O)[C@@H](N)CS)C(=O)N[C@@H](CC(N)=O)C(=O)N[C@@H](CCCCN)C(=O)NCC(=O)N[C@@H](CO)C(=O)N[C@@H](Cc1c[nH]cn1)C(=O)O [Sh-Fr-4] (H-CCNKGKNKGSH-OH; N-terminus and C-terminus assumed)
50
